Target: ERα (Homo sapiens)
Construct: host or cells: MCF7
Sequence (P03372 1-595): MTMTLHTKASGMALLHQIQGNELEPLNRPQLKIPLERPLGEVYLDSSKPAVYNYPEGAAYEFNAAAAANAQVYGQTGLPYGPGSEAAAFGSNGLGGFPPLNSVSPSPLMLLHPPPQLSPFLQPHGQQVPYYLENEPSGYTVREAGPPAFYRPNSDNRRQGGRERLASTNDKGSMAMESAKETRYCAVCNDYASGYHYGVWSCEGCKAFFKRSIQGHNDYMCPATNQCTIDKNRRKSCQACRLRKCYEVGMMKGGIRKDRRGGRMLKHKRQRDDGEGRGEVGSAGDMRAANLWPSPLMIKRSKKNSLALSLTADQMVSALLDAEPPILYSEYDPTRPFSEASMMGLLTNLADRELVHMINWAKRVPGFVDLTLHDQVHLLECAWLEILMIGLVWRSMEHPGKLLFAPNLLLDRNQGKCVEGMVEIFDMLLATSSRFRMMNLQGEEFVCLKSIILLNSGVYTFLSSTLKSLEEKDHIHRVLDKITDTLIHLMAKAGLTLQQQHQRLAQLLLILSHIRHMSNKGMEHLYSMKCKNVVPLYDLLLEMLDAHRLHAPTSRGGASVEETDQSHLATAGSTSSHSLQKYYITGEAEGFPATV
Assay: Estrogen receptor degradation activity: breast cancer cell ERα in cell western assay (MCF7 cells)
Assay type: cell-based
Conditions: 4 hours post compound addition, concentration which degrades 50% of the estrogen receptor, read-out: Degradation IC50
Experimental Readout: DC50 (nM)
Quick reminder: number only, in nM, skip the unit.

**Q:** Could you please provide reported DC50 for Cl.O=C(O)c1ccc2c(c1)CCC(c1ccc(Cl)cc1Cl)=C2c1ccc(CC2CN(CCCF)C2)cc1 [Example 262, Hydrochloride] ? Thanks!
**A:** 1.6

**Q:** Could you please provide reported DC50 for Cl.O=C(O)c1ccc2c(c1)CCCC(C1CCCC1)=C2c1ccc(CC2CN(CCCF)C2)cc1 ? Thanks!
**A:** 0.8

**Q:** Could you please provide reported DC50 for C[C@H]1CC[C@H](C2=C(c3ccc(CC4CN(CCCF)C4)cc3)c3ccc(C(=O)O)cc3CCC2)CC1 ? Thanks!
**A:** 4

**Q:** Could you please provide reported DC50 for C[C@H]1CC[C@@H](C2=C(c3ccc(CC4CN(CCCF)C4)cc3)c3ccc(C(=O)O)cc3CCC2)CC1 ? Thanks!
**A:** 0.8

**Q:** Could you please provide reported DC50 for Cc1cccc(C2=C(c3ccc(CC4CN(CCCF)C4)cc3)c3ccc(C(=O)O)cc3CCC2)c1C(F)(F)F.Cl [Example 313, hydrochloride] ? Thanks!
**A:** 0.3

**Q:** Could you please provide reported DC50 for COc1nc(C(F)(F)F)ccc1C1=C(c2ccc(CC3CN(CCCF)C3)cc2)c2ccc(C(=O)O)cc2CCC1 ? Thanks!
**A:** 0.5

**Q:** Could you please provide reported DC50 for COc1ncc(C2=C(c3ccc(CC4CN(CCCF)C4)cc3)c3ccc(C(=O)O)cc3CCC2)cc1C(F)(F)F ? Thanks!
**A:** 25.8

**Q:** Could you please provide reported DC50 for O=C(O)c1ccc2c(c1)CCCC(c1ccccc1F)=C2c1ccc(CC2CN(CCCF)C2)cc1 ? Thanks!
**A:** 0.4

**Q:** Could you please provide reported DC50 for Cc1cc(C(F)(F)F)ccc1C1=C(c2ccc(CC3CN(CCCF)C3)cc2)c2ccc(C(=O)O)cc2CCC1 ? Thanks!
**A:** 0.3

**Q:** Could you please provide reported DC50 for Cl.O=C(O)c1ccc2c(c1)CCCC(c1ccc(C(F)(F)F)cc1)=C2c1ccc(CC2CN(CCCF)C2)cc1 [Example 318, hydrochloride] ? Thanks!
**A:** 0.6

**Q:** Could you please provide reported DC50 for CC1CCc2cc(C(=O)O)ccc2C(c2ccc(CC3CN(CCCF)C3)cc2)=C1c1ccc(Cl)cc1Cl (single isomer, unassigned) [Example 303] ? Thanks!
**A:** 0.4

**Q:** Could you please provide reported DC50 for Cl.O=C(O)c1ccc2c(c1)CCCC(c1ccc(F)c3c1CCC3)=C2c1ccc(CC2CN(CCCF)C2)cc1 [Example 55, hydrochloride] ? Thanks!
**A:** 0.5

**Q:** Could you please provide reported DC50 for O=C(O)c1ccc2c(c1)CCCC(c1cccc(CCO)c1)=C2c1ccc(CC2CN(CCCF)C2)cc1 ? Thanks!
**A:** 48

**Q:** Could you please provide reported DC50 for O=C(O)c1ccc2c(c1)CCCC(c1ncc(Cl)cc1Cl)=C2c1ccc(CC2CN(CCCF)C2)cc1 ? Thanks!
**A:** 1.3
